Molecular target: T1, rhIL-17A (human, UniProt Q16552 24-155)
T1 sequence: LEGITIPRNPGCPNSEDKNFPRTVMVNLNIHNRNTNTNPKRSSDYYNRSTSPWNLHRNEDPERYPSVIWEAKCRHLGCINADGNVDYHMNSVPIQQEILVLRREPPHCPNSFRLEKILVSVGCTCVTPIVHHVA
Test: cell-based or functional assay
ENDPOINT NAME: IC50, synoviocyte IL-6 production, rhIL-17A (30 ng/ml) (µg/mL)
Give just the number in µg/mL; leave the unit off.

Example entries and their recorded answers appear below.
Recorded result, hu 16C10 VH M96A (antibody, human IgG1, V domains shown, Variant of hu 16C10 wt; Human IgG1/kappa; also called hu16C10 (M96A)) VH: QVQLQESGPGLVKPSETLSLTCTVSGFSLPSHSVSWIRQPPGKGLEWIGIIWNNGGTDYNSAFKSRVTISVDTSKNQFSLKLSSVTAADTAVYYCARNAYITDYYYENYFMDAWGQGTLVTVSS VL: DIVMTQSPLSLPVTPGEPASISCKSSQSLLFSENQKNYLAWYLQKPGQSPQLLIYWTSTRQSGVPDRFSGSGSGTDFTLKISRVEAEDVGVYYCQQSYYTPYTFGQGTKVEIKR , IC50, synoviocyte IL-6 production, rhIL-17A (30 ng/ml): 0.06

For reference, reported IC50, synoviocyte IL-6 production, rhIL-17A (30 ng/ml) for rat 16C10 (antibody, rat IgG1, V domains shown, also called 16C10C; antibody 16C10) VH: QVELRESGPGLVQPSQTLSLTCTVSGFSLPSHSVSWIRQPPGKGLEWMGIIWNNGGTDYNSAFKSRLTISRDTSKSQVFLKMNSLQTEDTAMYFCARNMYITDYYYENYFMDAWGQGASVTVSS VL: DIVMTQSPSSLAVSIGETVTLNCKSSQSLLFSENQKNYLAWYQHKSGQSPKLLVYWTSTRQSGVPDRFMGSGSGTDFTLTISSVQAEDLAIYYCQQSYYTPYTFGAGTKLELKR stands at 0.063

humanized 16C10 wt (antibody, human IgG1, kappa, V domains shown, Humanized antibody with the parental rat CDRs; Human IgG1/kappa; also called hu 16C10 wt; hu16C10 (wt)) VH: QVQLQESGPGLVKPSETLSLTCTVSGFSLPSHSVSWIRQPPGKGLEWIGIIWNNGGTDYNSAFKSRVTISVDTSKNQFSLKLSSVTAADTAVYYCARNMYITDYYYENYFMDAWGQGTLVTVSS VL: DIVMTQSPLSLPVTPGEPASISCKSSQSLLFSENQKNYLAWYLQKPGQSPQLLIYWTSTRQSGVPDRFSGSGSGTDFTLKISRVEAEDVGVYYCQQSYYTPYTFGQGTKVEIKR has a reported IC50, synoviocyte IL-6 production, rhIL-17A (30 ng/ml) of 0.08

***
Field IC50, synoviocyte IL-6 production, rhIL-17A (30 ng/ml) (entry hu 16C10 VH M96K (antibody, human IgG1, V domains shown, Variant of hu 16C10 wt; Human IgG1/kappa; also called hu16C10 (M96K)) VH: QVQLQESGPGLVKPSETLSLTCTVSGFSLPSHSVSWIRQPPGKGLEWIGIIWNNGGTDYNSAFKSRVTISVDTSKNQFSLKLSSVTAADTAVYYCARNKYITDYYYENYFMDAWGQGTLVTVSS VL: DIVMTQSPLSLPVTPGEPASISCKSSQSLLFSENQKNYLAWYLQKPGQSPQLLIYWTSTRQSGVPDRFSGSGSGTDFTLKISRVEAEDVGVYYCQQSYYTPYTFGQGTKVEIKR ) reads 0.06

Value of IC50, synoviocyte IL-6 production, rhIL-17A (30 ng/ml) reported for the binder hu 16C10 VH N54A (antibody, human IgG1, V domains shown, Variant of hu 16C10 wt; Human IgG1/kappa; also called hu16C10 (N54A)) VH: QVQLQESGPGLVKPSETLSLTCTVSGFSLPSHSVSWIRQPPGKGLEWIGIIWNAGGTDYNSAFKSRVTISVDTSKNQFSLKLSSVTAADTAVYYCARNMYITDYYYENYFMDAWGQGTLVTVSS VL: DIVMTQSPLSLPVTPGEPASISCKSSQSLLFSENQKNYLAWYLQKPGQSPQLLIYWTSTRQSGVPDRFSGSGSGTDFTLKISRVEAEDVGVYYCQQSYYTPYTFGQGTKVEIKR is 0.06

Hello, the source for this data is patent US20090175881A1, in case you need it.
